All values here come from patent US9296745B2.

Target: DGAT2 (Homo sapiens (Human), UniProt Q96PD7)
Sequence (Q96PD7 whole entry): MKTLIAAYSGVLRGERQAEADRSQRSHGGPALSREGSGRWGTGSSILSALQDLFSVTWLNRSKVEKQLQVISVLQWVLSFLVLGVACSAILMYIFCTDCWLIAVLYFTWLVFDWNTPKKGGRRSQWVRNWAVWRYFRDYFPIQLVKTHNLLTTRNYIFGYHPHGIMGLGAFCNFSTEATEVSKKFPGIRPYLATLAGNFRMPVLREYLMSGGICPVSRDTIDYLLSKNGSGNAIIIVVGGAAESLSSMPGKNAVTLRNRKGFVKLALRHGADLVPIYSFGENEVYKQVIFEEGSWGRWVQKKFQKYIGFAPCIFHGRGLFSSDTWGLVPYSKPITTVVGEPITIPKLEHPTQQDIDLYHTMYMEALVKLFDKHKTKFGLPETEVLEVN
Assay: IC50 determination for DGAT2 inhibitors in human hepatocytes ([1,3-14C]-glycerol incorporation into lipids)
Assay type: cell-based
Settings: average IC50; cryopreserved human hepatocytes, selective DGAT1 inhibitor (3 μM) in all wells, 3 hour incubation with [1,3-14C]-glycerol; read-out: IC50 (nM) in primary human hepatocyte
Measured Metric: IC50 (nM)

INSERT INTO results (molecule, measured_metric, result_unit, measurement) VALUES
  ('O=C([C@@H]1CCCN(c2ccc3nc(C4(n5cc(C(F)(F)F)cn5)CC4)[nH]c3n2)C1)N1CCCC1', 'IC50', 'nM', 9.4),
  ('O=C([C@H]1CN(c2ccc3nc(-c4cccc(C(F)F)n4)[nH]c3n2)CCO1)N1CCCC1', 'IC50', 'nM', 71.7);

A. O=C([C@@H]1CCCN(c2ccc3nc(C4(c5ccccn5)CC4)[nH]c3n2)C1)N1CCCC1
B. C[C@H](c1nc2cnc(N3CCC[C@@H](C(=O)N4CCCC4)C3)nc2[nH]1)n1cc(Cl)cn1
C. C[C@@H](c1nc2ccc(N3CCC[C@@H](C(=O)N4CCCC4)C3)nc2[nH]1)n1cc(Cl)cn1
D. O=C([C@@H]1CCCN(c2ccc3nc(C4(c5cccnc5)CC4)[nH]c3n2)C1)N1CCCC1
E. CC(c1nc2ccc(N3CCC[C@@H](C(=O)N4CCCC4)C3)nc2[nH]1)n1cccn1 (stereo partly shown)
Asked: Sort entries by IC50 from minimum to maximum value. Form field (ranking): labels in requested order.
Given back: B, C, A, D, E
(B: 2.5 nM, C: 4.6 nM, A: 15.8 nM, D: 47.7 nM, E: 86.8 nM)

----------
Target: Human DGAT2 (hDGAT2) (Homo sapiens (Human), UniProt Q96PD7)
Sequence (Q96PD7 whole entry): as above
Assay: In vitro DGAT2 assay, IC50 determination with hDGAT2 membrane fraction
Assay type: biochemical
Details: geometric mean; background for complete inhibition of DGAT2 obtained with 50 μM (1R,2R)-2-({3′-Fluoro-4′-[(6-fluoro-1,3-benzothiazol-2-yl)amino]-1,1′-biphenyl-4-yl}carbonyl)cyclopentanecarboxylic acid; read-out: DGAT2 IC50
pIC50: −log10 of the molar value.
Measured Metric: pIC50

INSERT INTO results (molecule, measurement) VALUES
  ('O=C([C@@H]1CCCN(c2ccc3nc(-c4ccnc(C5CCC5)n4)[nH]c3n2)C1)N1CCCC1 [Example 147]', 8.04),
  ('O=C([C@@H]1CCCN(c2ccc3nc(C4(n5cc(C6CC6)cn5)CC4)[nH]c3n2)C1)N1CCCC1 [Example 77]', 6.97);

A. Cc1nc(-c2nc3ccc(N4CCC[C@@H](C(=O)N5CCCC5)C4)nc3[nH]2)cs1 [Example 17]
B. O=C([C@@H]1CCCN(c2ccc3nc(-c4ccnc(C5CC5)n4)[nH]c3n2)C1)N1CC[C@@H](F)C1 [Example 69]
C. CS(=O)(=O)c1cncc(-c2nc3ccc(N4CCC[C@@H](C(=O)N5CCCC5)C4)nc3[nH]2)c1 [Example 179]
D. O=C([C@@H]1CCCN(c2ccc3nc(C4(c5ccc(C(F)(F)F)cc5)CC4)[nH]c3n2)C1)N1CCCC1 [Example 106]
E. Cc1ccnn1C1(c2nc3ccc(N4CCC[C@@H](C(=O)N5CCCC5)C4)nc3[nH]2)CC1 [Example 90]
Asked: Sort entries by pIC50 from minimum to maximum value. Form field (ranking): labels in requested order.
Given back: C, E, A, B, D

----------
Target: DGAT2 (Homo sapiens (Human))
Assay: IC50 determination for DGAT2 inhibitors in human hepatocytes ([1,3-14C]-glycerol incorporation into lipids)
Type: cell-based
Conditions: average IC50; cryopreserved human hepatocytes, selective DGAT1 inhibitor (3 μM) in all wells, 3 hour incubation with [1,3-14C]-glycerol; read-out: IC50 (nM) in primary human hepatocyte
Measured Metric: IC50 (nM)

Consider the worked cases shown below.
INSERT INTO results (structure_smiles, measurement) VALUES
  ('O=C([C@@H]1CCCN(c2ncc3nc(C4(n5cc(F)cn5)CC4)[nH]c3n2)C1)N1CCCC1', 8.9),
  ('C[C@@H](c1nc2cnc(N3CCC[C@@H](C(=O)N4CCCC4)C3)nc2[nH]1)n1cc(Cl)cn1', 7.8);

P. C[C@H](c1nc2ccc(N3CCC[C@@H](C(=O)N4CCCC4)C3)nc2[nH]1)n1cc(Cl)cn1
Q. O=C([C@H]1CN(c2ccc3nc(C4(n5cc(Cl)cn5)CC4)[nH]c3n2)CCO1)N1CCCC1
R. O=C([C@@H]1CCCN(c2ncc3nc(C4(n5cc(Cl)cn5)CC4)[nH]c3n2)C1)N1CCCC1
S. O=C([C@@H]1CCCN(c2ccc3nc(-c4ccnc(C5CC5)n4)[nH]c3n2)C1)N1CCCC1
Asked: Sort entries by IC50 from minimum to maximum value. Form field (ranking): labels in requested order.
Given back: R, P, Q, S
